self-cleavage for assorted variants
B1: HDV Ribozyme (parent)
chain: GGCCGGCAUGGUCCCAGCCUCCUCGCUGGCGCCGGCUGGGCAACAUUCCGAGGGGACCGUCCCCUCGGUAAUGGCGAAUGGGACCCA

# Variants of: B1
# ASSAY NOTES: self-cleavage, relative activity (ratio to wild type); higher = more cleavage; co-transcriptional

{"columns": ["ALTERATION", "self-cleavage"],
 "data": [
  ["C26G G73C", 0.492],
  ["G17C U37C", 0.344],
  ["A16U U27A", 0.697],
  ["A45U G59C", 0.969],
  ["C3G C32A", 0],
  ["U20C A78C", 0.0449],
  ["C15G C33A", 0.0405],
  ["C14G C41U", 0.462],
  ["C24A A70C", 0.852],
  ["U65G A83G", 0.698],
  ["G25C C64A", 0.203]
]}

The reported numbers originate from the RNAGym collection of RNA variant scans (doi:10.7554/elife.80360).
